method notes: Rat PO PK study, Method B
Format: in vivo, male Sprague Dawley (SD) rats
condition: male, Sprague Dawley, plasma, 100 mg/kg, 20% solutol HS 15 in water
property name: Cmax
Number first, unit second.

molecule: CN=S(=O)(c1ccc(-n2ccn(-c3c4c(nn3-c3cc(C)c(F)c(C)c3)CCN(C(=O)c3cc5cc([C@H]6CCOC(C)(C)C6)ccc5n3[C@@]3(c5noc(=O)[nH]5)C[C@@H]3C)[C@H]4C)c2=O)c(F)c1NC)C1CC1 (single isomer, unassigned)
result: 8680 ng/mL

(Q) Please give the measured Cmax for this molecule: CCS(=O)(=NC)c1ccc(-n2ccn(-c3c4c(nn3-c3cc(C)c(F)c(C)c3)CCN(C(=O)c3cc5cc([C@H]6CCOC(C)(C)C6)ccc5n3[C@@]3(c5noc(=O)[nH]5)C[C@@H]3C)[C@H]4C)c2=O)c(F)c1 (single isomer, unassigned)
(A) 11200 ng/mL

----------
measured target: GLP-1 Receptor (Homo sapiens)
Sequence (P43220 24-463, species assumed): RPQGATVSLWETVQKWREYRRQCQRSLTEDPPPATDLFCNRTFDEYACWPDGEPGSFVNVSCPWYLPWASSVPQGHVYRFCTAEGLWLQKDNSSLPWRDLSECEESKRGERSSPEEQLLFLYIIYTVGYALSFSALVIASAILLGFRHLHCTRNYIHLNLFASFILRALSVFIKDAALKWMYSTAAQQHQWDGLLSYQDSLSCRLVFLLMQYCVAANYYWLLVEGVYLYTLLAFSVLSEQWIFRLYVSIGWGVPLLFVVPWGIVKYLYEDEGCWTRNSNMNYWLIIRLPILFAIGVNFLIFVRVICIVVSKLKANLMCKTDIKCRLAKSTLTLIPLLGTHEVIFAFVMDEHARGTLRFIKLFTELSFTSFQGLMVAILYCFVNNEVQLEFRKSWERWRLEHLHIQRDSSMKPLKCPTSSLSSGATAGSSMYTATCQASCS
method notes: GLP-1R agonist cAMP stimulation assay (HEK293/GLP1R/CRE-LUC cells, Cisbio cAMP dynamic 2 kit)
Assay type: cell-based
condition: Table 3, HEK293/GLP1R/CRE-LUC cells, 30 min
Kindly state EC50 for each of the entries shown.
Answers are plain numbers, in nM.

compound: CCN=S(=O)(c1ccc(-n2ccn(-c3c4c(nn3-c3cc(C)c(F)c(C)c3)CCN(C(=O)c3cc5cc([C@H]6CCOC(C)(C)C6)ccc5n3[C@@]3(c5noc(=O)[nH]5)C[C@@H]3C)[C@H]4C)c2=O)c(F)c1)C1CC1 (single isomer, unassigned)
measured target: GLP-1 Receptor (Homo sapiens)
EC50 / nM: 0.11

Next compound, please.
(Q) Form field: EC50 recorded for CN=S1(=O)CCC(Oc2ccc(-n3ccn(-c4c5c(nn4-c4cc(C)c(F)c(C)c4)CCN(C(=O)c4cc6cc(C7CCOCC7)ccc6n4[C@@]4(c6noc(=O)[nH]6)C[C@@H]4C)[C@H]5C)c3=O)c(F)c2C)CC1 (single isomer, unassigned) [Compound 233] with GLP-1 Receptor (Homo sapiens) (enter value)
(A) 0.028

----------
method notes: Caco-2 permeability / efflux study
Assay type: in vitro ADME
condition: human, Caco-2, pH 7.4, 10 μM, 37° C., pH 7.4, 0.5% BSA, read-out: Caco-2 Perm
property name: Papp at 2 h, 10 μM (×10⁻⁶ cm/s)
Answers are plain numbers, in ×10⁻⁶ cm/s.

Hey, can you go through the list below and give me Papp at 2 h, 10 μM for every item?
1. Cc1cc(-n2nc3c(c2-n2ccn(-c4ccc(S(=N)(=O)C5CCC5)cc4F)c2=O)[C@H](C)N(C(=O)c2cc4cc([C@H]5CCOC(C)(C)C5)ccc4n2[C@@]2(c4noc(=O)[nH]4)C[C@@H]2C)CC3)cc(C)c1F (single isomer, unassigned) [Compound 183]
2. CCS(=O)(=NC)c1ccc(-n2ccn(-c3c4c(nn3-c3cc(C)c(F)c(C)c3)CCN(C(=O)c3cc5cc([C@H]6CCOC(C)(C)C6)ccc5n3[C@@]3(c5noc(=O)[nH]5)C[C@@H]3C)[C@H]4C)c2=O)c(F)c1C (single isomer, unassigned) [Compound 216]
3. CCS(=O)(=NC)c1ccc(-n2ccn(-c3c4c(nn3-c3cc(C)c(F)c(C)c3)CCN(C(=O)c3cc5cc(C6CCOCC6)ccc5n3[C@@]3(c5noc(=O)[nH]5)C[C@@H]3C)[C@H]4C)c2=O)c(F)c1 (single isomer, unassigned) [Compound 149]
4. CNS(=O)(=O)c1ccc(-n2ccn(-c3c4c(nn3-c3cc(C)c(F)c(C)c3)CCN(C(=O)c3cc5cc(C6CCOCC6)ccc5n3[C@@]3(c5noc(=O)[nH]5)C[C@@H]3C)[C@H]4C)c2=O)cc1 [Compound C-3, reference compound]
5. Cc1cc(-n2nc3c(c2-n2ccn(-c4ccc(S(=N)(=O)C5CCC5)cc4F)c2=O)[C@H](C)N(C(=O)c2cc4cc(C5CCOCC5)ccc4n2[C@@]2(c4noc(=O)[nH]4)C[C@@H]2C)CC3)cc(C)c1F (single isomer, unassigned) [Compound 168]
6. CCS(=O)(=O)c1ccc(-n2ccn(-c3c4c(nn3-c3cc(C)c(F)c(C)c3)CCN(C(=O)c3cc5cc(C6CCOCC6)ccc5n3[C@@]3(c5noc(=O)[nH]5)C[C@@H]3C)[C@H]4C)c2=O)cc1 [Compound C-1, reference compound]

(A)
1: 0.19; 2: 0.32; 3: 0.33; 4: 0.05; 5: 0.21; 6: 0.126

----------
Kindly state half-life for each of the entries shown.
method notes: Rat IV/PO PK study, Method A
Assay type: in vivo, male Sprague Dawley (SD) rats
condition: male, Sprague Dawley, plasma, 1 mg/kg, elimination half life (IV), Method A
One number for each entry, in h.

The following molecules have reported results that may help.
molecule: CCS(=O)(=NC)c1ccc(-n2ccn(-c3c4c(nn3-c3cc(C)c(F)c(C)c3)CCN(C(=O)c3cc5cc([C@H]6CCOC(C)(C)C6)ccc5n3[C@@]3(c5noc(=O)[nH]5)C[C@@H]3C)[C@H]4C)c2=O)c(F)c1 (single isomer, unassigned)
property name: half-life
readout number: 2.4
--
molecule: Cc1cc(-n2nc3c(c2-n2ccn(-c4ccc(S(=N)(=O)C5CC5)cc4F)c2=O)[C@H](C)N(C(=O)c2cc4cc([C@H]5CCOC(C)(C)C5)ccc4n2[C@@]2(c4noc(=O)[nH]4)C[C@@H]2C)CC3)cc(C)c1F (single isomer, unassigned)
property name: half-life
readout number: 1.66
--
molecule: Cc1cc(-n2nc3c(c2-n2ccn(-c4ccc5c(cnn5C)c4F)c2=O)[C@H](C)N(C(=O)c2cc4cc([C@H]5CCOC(C)(C)C5)ccn4c2C2(c4noc(=O)[nH]4)CC2)CC3)cc(C2CC2)c1F [Compound C-6, reference compound]
property name: half-life
readout number: 3.1

(Q) Please give the measured half-life for this molecule: CN=S(=O)(c1ccc(-n2ccn(-c3c4c(nn3-c3cc(C)c(F)c(C)c3)CCN(C(=O)c3cc5cc([C@H]6CCOC(C)(C)C6)ccc5n3[C@@]3(c5noc(=O)[nH]5)C[C@@H]3C)[C@H]4C)c2=O)c(F)c1C)C1CC1 (single isomer, unassigned)
(A) 4.3

----------
method notes: Rat IV/PO PK study, Method A
Type: in vivo, male Sprague Dawley (SD) rats
condition: PO, 5 mpk, free form
Kindly state AUC (ng · h/mL)_free form/dose for each of the entries shown.

The following compounds have reported results that may help.
compound: CCS(=O)(=NC)c1ccc(-n2ccn(-c3c4c(nn3-c3cc(C)c(F)c(C)c3)CCN(C(=O)c3cc5cc([C@H]6CCOC(C)(C)C6)ccc5n3[C@@]3(c5noc(=O)[nH]5)C[C@@H]3C)[C@H]4C)c2=O)c(F)c1 (single isomer, unassigned) [Compound 164]
property name: AUC (ng · h/mL)_free form/dose
result: 6,094/5 mpk ng · h/mL
--
compound: CN=S(=O)(c1ccc(-n2ccn(-c3c4c(nn3-c3cc(C)c(F)c(C)c3)CCN(C(=O)c3cc5cc([C@H]6CCOC(C)(C)C6)ccc5n3[C@@]3(c5noc(=O)[nH]5)C[C@@H]3C)[C@H]4C)c2=O)c(F)c1)C1CC1 (single isomer, unassigned) [Compound 180]
property name: AUC (ng · h/mL)_free form/dose
result: 4,954/5 mpk ng · h/mL

Hey, can you go through the list below and give me AUC (ng · h/mL)_free form/dose for every item?
1. Cc1cc(-n2nc3c(c2-n2ccn(-c4ccc5c(cnn5C)c4F)c2=O)[C@H](C)N(C(=O)c2cc4cc([C@H]5CCOC(C)(C)C5)ccn4c2C2(c4noc(=O)[nH]4)CC2)CC3)cc(C2CC2)c1F [Compound C-6, reference compound]
2. Cc1cc(-n2nc3c(c2-n2ccn(-c4ccc(S(=N)(=O)C5CC5)cc4F)c2=O)[C@H](C)N(C(=O)c2cc4cc([C@H]5CCOC(C)(C)C5)ccc4n2[C@@]2(c4noc(=O)[nH]4)C[C@@H]2C)CC3)cc(C)c1F (single isomer, unassigned) [Compound 181]

(A)
1. 4,276/5 mpk ng · h/mL
2. 6,097/5 mpk ng · h/mL

----------
method notes: Rat IV/PO PK study, Method A
Assay type: in vivo, male Sprague Dawley (SD) rats
condition: male, Sprague Dawley, plasma, PO, 5 mg/kg, *obtained under method 3A
Kindly state AUC for each of the entries shown.
Number first, unit second.

The following compounds have reported results that may help.
compound: CN=S(=O)(c1ccc(-n2ccn(-c3c4c(nn3-c3cc(C)c(F)c(C)c3)CCN(C(=O)c3cc5cc([C@H]6CCOC(C)(C)C6)ccc5n3[C@@]3(c5noc(=O)[nH]5)C[C@@H]3C)[C@H]4C)c2=O)c(F)c1NC)C1CC1 (single isomer, unassigned)
AUC: 7.43 µg·h/mL

compound: CN=S(=O)(c1ccc(-n2ccn(-c3c4c(nn3-c3cc(C)c(F)c(C)c3)CCN(C(=O)c3cc5cc([C@H]6CCOC(C)(C)C6)ccc5n3[C@@]3(c5noc(=O)[nH]5)C[C@@H]3C)[C@H]4C)c2=O)c(F)c1)C1CC1 (single isomer, unassigned)
AUC: 6.1 µg·h/mL

compound: CCS(=O)(=NC)c1ccc(-n2ccn(-c3c4c(nn3-c3cc(C)c(F)c(C)c3)CCN(C(=O)c3cc5cc([C@H]6CCOC(C)(C)C6)ccc5n3[C@@]3(c5noc(=O)[nH]5)C[C@@H]3C)[C@H]4C)c2=O)c(F)c1 (single isomer, unassigned)
AUC: 9.54 µg·h/mL

compound: Cc1cc(-n2nc3c(c2-n2ccn(-c4ccc5c(cnn5C)c4F)c2=O)[C@H](C)N(C(=O)c2cc4cc([C@H]5CCOC(C)(C)C5)ccn4c2C2(c4noc(=O)[nH]4)CC2)CC3)cc(C2CC2)c1F [Compound C-6, reference compound]
AUC: 4.28 µg·h/mL

(Q) Please give the measured AUC for this compound: CN=S(=O)(c1ccc(-n2ccn(-c3c4c(nn3-c3cc(C)c(F)c(C)c3)CCN(C(=O)c3cc5cc([C@H]6CCOC(C)(C)C6)ccc5n3[C@@]3(c5noc(=O)[nH]5)C[C@@H]3C)[C@H]4C)c2=O)c(F)c1C)C1CC1 (single isomer, unassigned)
(A) 5 µg·h/mL
